Test System: T1, HLA-A*03:01 (human)
T1 construct: Peptide-receptive MHC class I monomer in the UV-ligand exchange assay
Assay Name: UV peptide exchange, anti-b2m ELISA; exchange yield grade
Listing of entries alongside the reported peptide exchange yield.
Experimental Readout: peptide exchange yield

INSERT INTO results (binder, result) VALUES
  ('ALAQGANLK', '50 to 75%'),
  ('STQSSLLYLK', '50 to 75%'),
  ('GTVFVLLSK', '20 to 50%'),
  ('SLATAISAK', '50 to 75%');
